# Test system: MCF7 breast
# TEST: NCI tumour cell line growth inhibition, 48 h
MEASURED ATTRIBUTE: TGI (µM)
Lab book: enter the figure in µM, no units written.

INSERT INTO measurements (compound, measured_attribute, endpoint_value) VALUES
  ('CNc1nnc(CCCCCCCCc2nnc(NC)o2)o1', 'TGI', 38.3);

## Input // query TGI value for entry Cc1c(C(=O)c2ccc(N)c3ccccc23)c2ccccc2n1CCN1CCOCC1
## Output 70.9

## Input Dear colleague, I am looking for the recorded TGI of the following compound: NNC(=O)Nc1nc2ccc(NN)cc2[nH]1
## Output 82.5

## Input Which TGI is reported for this compound? CNC(=O)NCC1OC(n2cnc3c(NC(=O)Nc4ccccc4)ncnc32)C(O[Si](C)(C)C(C)(C)C)C1O[Si](C)(C)C(C)(C)C (stereo unspecified)
## Output 19.4

## Input Find the recorded TGI belonging to CC1=CC2C(C(O)CC3(C)C2CC(C)C32OCOC23COCO3)C2(C)C/C(=C/O)C(=O)C=C12 (stereo unspecified) and report it.
## Output 10.1

## Input What TGI value was documented for this compound, C[C@H](c1ccc(Cl)cc1[N+](=O)[O-])N1C(=O)c2cc(I)ccc2N=C(OCCCN2CCN(C)CC2)[C@@H]1c1ccc(Cl)cc1 ?
## Output 3.26
